As shown below, each of these compounds has a reported concentration at 24 h value.
test.summary: Drug concentration in NOD-SCID mouse plasma at 25 mg/kg, po measured at 24 hrs by LC-MS/MS analysis
Type: ADME, organism-based

| line.notation | concentration at 24 h (nM) |
| --- | --- |
| COc1cc(-c2cncc3c2CN(C)Cc2cc(N4CCN(C)CC4)ccc2-3)cc(OC)c1OC | 17 |
| COc1cc(-c2cncc3c2CCOc2cc(N4CCNCC4)ccc2-3)cc(OC)c1OC | 63 |
| COc1cc(-c2cncc3c2CN(C)Cc2cc(N4CCNCC4)ccc2-3)cc(OC)c1OC | 336 |
| COc1cc(-c2cncc(-c3ccc(N4CCNCC4)cc3)c2C)cc(OC)c1OC | 1540 |
